tested on: A2780 human ovarian carcinoma cell line; assay: MTT antiproliferative assay, A2780; format: cell-based; settings: 72 h incubation, mean ± SD of three independent experiments, read-out: IC50 (72 h) А2780
Measurement label: pIC50
Please note pIC50 is a logarithmic value: minus log10 of concentration in mol/L. Answer with that number alone.

Query block: Look at this molecule and give its reported pIC50. CCc1ccc([N+]2=Cc3cccc[c]3[Ru-4]234([n+]2ccccc2-c2cccc[n+]23)[n+]2ccccc2-c2cccc[n+]24)cc1.F[P-](F)(F)(F)(F)F [Compound 3d]
Result block: 7.35

Query block: Look at this molecule and give its reported pIC50. COc1ccc([N+]2=Cc3cccc[c]3[Ru-4]234([n+]2ccccc2-c2cccc[n+]23)[n+]2ccccc2-c2cccc[n+]24)cc1.F[P-](F)(F)(F)(F)F [Compound 3f]
Result block: 7.19

Query block: Look at this molecule and give its reported pIC50. C1=[N+](c2ccccc2)[Ru-4]23([c]4ccccc41)([n+]1ccccc1-c1cccc[n+]12)[n+]1ccccc1-c1cccc[n+]13.F[P-](F)(F)(F)(F)F [Compound 3a]
Result block: 7.48

Query block: Look at this molecule and give its reported pIC50. FC(F)(F)c1ccc([N+]2=Cc3scc[c]3[Ru-4]234([n+]2ccccc2-c2cccc[n+]23)[n+]2ccccc2-c2cccc[n+]24)cc1.F[P-](F)(F)(F)(F)F [Compound 3o]
Result block: 7.02

Query block: Look at this molecule and give its reported pIC50. CCOC(=O)c1ccc([N+]2=Cc3cccc[c]3[Ru-4]234([n+]2ccccc2-c2cccc[n+]23)[n+]2ccccc2-c2cccc[n+]24)cc1.F[P-](F)(F)(F)(F)F [Compound 3g]
Result block: 7.00

Data credit: paper PMC12844335
